test system: Rattus norvegicus; assay: Antiallergic activity against anti-egg albumin homocytotropic antibody injected Sprague-Dawley rat assessed as inhibition of passive cutaneous anaphylaxis reaction administered iv at the time of egg albumin antigen challenge or ip 30 mins prior to egg albumin antigen challenge; format: functional; conditions: read-out: ID50 (the source's name)
REPORTED ENDPOINT: ED50 (mg/kg)
Give bare numbers, in mg/kg.

O=C(O)c1cc(=O)c2c([nH]1)c1c(=O)cc(C(=O)O)[nH]c1c1c(=O)cc(C(=O)O)[nH]c21
0.5
O=C(O)c1cc(=O)c2ccc3c(ccc4c(=O)cc(C(=O)O)[nH]c43)c2[nH]1
0.005
O=C(O)c1cc(=O)c2c(ccc3c(=O)cc(C(=O)O)[nH]c32)[nH]1
1
COc1c2[nH]c(C(=O)O)cc(=O)c2cc2c(=O)cc(C(=O)O)[nH]c12
0.1
O=C(O)c1cc(=O)c2cc(Cl)c3c(ccc4c(=O)cc(C(=O)O)[nH]c43)c2[nH]1
0.05

Hello, I would appreciate it if you could give ED50 for each entry below.
1. O=C(O)c1cc(=O)c2c(ccc3[nH]c(C(=O)O)cc(=O)c32)[nH]1
2. O=C(O)c1ccc2ccccc2n1
3. Cc1c(C(=O)O)[nH]c2ccc3[nH]c(C(=O)O)c(C)c(=O)c3c2c1=O
4. Cc1c(C(=O)[O-])[nH]c2c(C)c3[nH]c(C(=O)O)c(C)c(=O)c3cc2c1=O.[Na+]
5. O=C([O-])c1cc(=O)c2c(OCC(O)COc3cccc4oc(C(=O)[O-])cc(=O)c34)cccc2o1.[Na+].[Na+] [CROMOLYN SODIUM]

[2.5, 50, 10, 5, 2.5]

* * *

test system: Rattus norvegicus; assay: Antiallergic activity against anti-egg albumin homocytotropic antibody injected Sprague-Dawley rat assessed as inhibition of passive cutaneous anaphylaxis reaction administered iv at the time of egg albumin antigen challenge or ip 30 mins prior to egg albumin antigen challenge; format: functional; conditions: read-out: ID50 (the source's name)
Flag rule - ED50 less than 0.1 mg/kg flags Criterion met; the remaining entries get Criterion not met.

N#Cc1c2[nH]c(C(=O)O)cc(=O)c2cc2c(=O)cc(C(=O)O)[nH]c12
Criterion met
Cc1c2[nH]c(C(=O)[O-])cc(=O)c2cc2c(=O)cc(C(=O)[O-])[nH]c12.[Na+].[Na+]
Criterion not met
CCCCc1cc2c(=O)cc(C(=O)O)[nH]c2c2c(=O)cc(C(=O)O)[nH]c12
Criterion met
O=C(O)c1cc(=O)c2c(cc(C(=O)O)c3c(=O)cc(C(=O)O)[nH]c32)[nH]1
Criterion not met

In plain terms, does `O=C(O)c1cc(=O)c2cc3c(=O)cc(C(=O)O)[nH]c3c(Cl)c2[nH]1` come in under 0.1 mg/kg for ED50?
Criterion met

Also check `Cc1c2c(=O)cc(C(=O)[O-])[nH]c2c(Cl)c2[nH]c(C(=O)[O-])cc(=O)c12.[Na+].[Na+]`
Criterion met

Proceed to `O=C(O)c1cc(=O)c2cc3c(=O)cc(C(=O)O)[nH]c3c(F)c2[nH]1`
Criterion not met
